Measured growth, listed per entry.
Test system: TK-10 renal
ASSAY DETAILS: NCI-60 one-dose screen, 48 h (100 = growth as untreated, 0 = no growth, -100 = all killed)
MEASUREMENT SETUP: 10 µM unless noted
This is part of a sample that, as a whole, favours compounds with a hit. Of some 83,000 tested, about 20% had one in any assay.
Give the value, in units of %, as a plain number.

                                   molecule  value_observed
0                         Cc1ncc(C#N)c(N)n1             109
1  COc1ccc(/C(C#N)=C2C=C/C(=N/O)c3ccccc3\2)cc1            54.5
2      CCCC[P+](c1ccccc1)(c1ccccc1)c1ccccc1            74.8
3           Cc1cc(Cc2cc(C)c(N)cc2N)c(N)cc1N             146
4  Cc1nc2ccccc2c2nnc(SCC(=O)N(Cc3ccccc3)c3ccccc3)n12             189

Field: next molecule
Note growth for the molecule shown: CCCC1(c2ccccc2)NC(=O)NC1=O (stereo unspecified)
95.2

---

Test system: LOX IMVI melanoma
ASSAY DETAILS: NCI-60 one-dose screen, 48 h (100 = growth as untreated, 0 = no growth, -100 = all killed)
MEASUREMENT SETUP: 10 µM
About 83,000 compounds went through this panel and 20% of them were active in at least one assay; those are over-represented in the sample as a whole.
RESULT TYPE: growth (%)
Give the value, in units of %, as a plain number.

Answered cases to consult:
>>> print(df.to_string())
                                   molecule  result_type  value_observed
0     CCCCCCCCCCC(C)Br (stereo unspecified)       growth            94.3
1  C[C@]12CC[C@@H]3c4ccc(OCC(=O)O)cc4CC[C@H]3[C@@H]1CCC2=O       growth              86
2  COc1cc(CCN=Cc2ccccc2O)c([N+](=O)[O-])cc1OC       growth            99.4
3                       NC(=O)N/N=C\c1ccco1       growth             102
4                      Cc1cc(C)cc(NCCC#N)c1       growth             105
5                  C[N+](C)(C)C(=O)c1ccccc1       growth            99.9
6     Clc1ccc(-c2n[nH]c3c2Cc2ccccc2-3)cc1Cl       growth            97.4
7                                     NCCCN       growth             112
8     CCCCC1C(=O)N(c2ccccc2)N(c2ccccc2)C1=O       growth            99.4
9  COc1cc(-c2ccc(NC(=O)NC3CC3)c(OC)c2)ccc1NC(=O)NC1CC1       growth            36.8

Note growth for the molecule shown: CCCC(C)OCC(=O)O (stereo unspecified)
99.1

Note growth for the molecule shown: CC1=CC(C)(C)NC(=S)N1c1ccc(S(=O)(=O)O)c2cccc(S(=O)(=O)O)c12
107

Note growth for the molecule shown: S=c1nn[nH]c2ccccc12
93.6

---

Tested on: PC-3 prostate
ASSAY DETAILS: NCI-60 one-dose screen, 48 h (100 = growth as untreated, 0 = no growth, -100 = all killed)
MEASUREMENT SETUP: 10 µM
Compounds without any hit were thinned out: in the full panel of roughly 83,000, 20% have a hit. Calls of active or inactive are those of the source. The calls were made as follows: active = growth percent below 10; inactive = the rest.
RESULT TYPE: growth

Answered cases to consult:
>>> print(df.to_string())
                                   compound  result_type    value_observed
0                    CC1=CC(=O)c2ccccc2C1=O       growth   108% (inactive)
1      O=[N+]([O-])c1ccc(Cl)c(S(=O)(=O)O)c1       growth   108% (inactive)
2  CC(C)NC(=O)OCc1c(COC(=O)NC(C)C)c(-c2ccc(Cl)c(Cl)c2)n2c1SCC2       growth  61.3% (inactive)
3  CCc1nn(Cc2ccccc2)c2nc(C)c(CCc3ccccc3)c(Cl)c12       growth    76% (inactive)
4  CCCCCCCCCCC1CO1 (configuration not stated)       growth   102% (inactive)

Note growth for the compound shown: C#CC(C)(O)c1ccc(Cl)cc1 (configuration not stated)
96.6% (inactive)

Note growth for the compound shown: Sc1ccc(Nc2c3ccccc3nc3ccccc23)cc1
76.5% (inactive)

---

Tested on: 786-0 renal
ASSAY DETAILS: NCI-60 one-dose screen, 48 h (100 = growth as untreated, 0 = no growth, -100 = all killed)
MEASUREMENT SETUP: 10 µM
About 83,000 compounds went through this panel and 20% of them were active in at least one assay; those are over-represented in the sample as a whole.
Measured growth, listed per entry.
Give the value, in units of %, as a plain number.

>>> df
                                   compound       target  value_observed
0  O=C(Cc1nc2ccc([N+](=O)[O-])cc2nc1CC(=O)c1ccccc1)c1ccccc1  786-0 renal              42

Note growth for the compound shown: OCc1cccc2ccccc12
109

Note growth for the compound shown: Nc1ccc(N=Nc2ccc(S(=O)(=O)O)cc2)c2ccccc12
106

Note growth for the compound shown: CCOC(=O)c1cc(/C=C/c2cccc(Cl)c2)on1
97.7

Note growth for the compound shown: CC1=CC(C)(C)NC(=S)N1c1ccc(S(=O)(=O)O)c2cccc(S(=O)(=O)O)c12
112

Note growth for the compound shown: S=C1CCCCCN1
107

Note growth for the compound shown: Oc1ccc2c(c1)OCC1(O)Cc3cc(O)c(O)cc3C21 (configuration not stated)
95.2

Note growth for the compound shown: C[N+](C)=c1ccc2nc3c(cc(Nc4ccccc4)c4ccccc43)oc-2c1
72.8

Note growth for the compound shown: O=c1cc2oc3cc(O)c(O)cc3c(-c3ccccc3O)c-2cc1O
57.2

Note growth for the compound shown: O=c1c2ccccc2c(Br)c(Br)c2ccccc12
84.3

Note growth for the compound shown: CC1CCCC(CC(N)=O)CC1 (configuration not stated)
110

Note growth for the compound shown: S=c1nn[nH]c2ccccc12
111

---

System: IGROV1 ovarian
ASSAY DETAILS: NCI-60 one-dose screen, 48 h (100 = growth as untreated, 0 = no growth, -100 = all killed)
MEASUREMENT SETUP: 10 µM
Compounds without any hit were thinned out: in the full panel of roughly 83,000, 20% have a hit.
RESULT TYPE: growth (%)
Give the value, in units of %, as a plain number.

Answered cases to consult:
>>> print(df.to_string())
                                   compound  result_type  value_observed
0                      CCCCNC(=O)C(=O)NCCCC       growth             113
1                    COC(=O)c1ccc(C(C)C)cc1       growth             105
2                          COc1ncnc2c1cnn2C       growth             110
3  CC(=O)OC(OC(C)=O)C1CCCO1 (configuration not stated)       growth             110
4             CCCCC/C=N/Nc1nc(C)cc(=O)[nH]1       growth             109

Provide growth, recorded with IGROV1 ovarian, of O=C(/C=C\c1ccc(O)cc1)c1ccccc1
87.3

Provide growth, recorded with IGROV1 ovarian, of COc1cc2c(cc1OC)[C@H](C(=O)O)[C@@H](c1ccc(OC(C)C)c(OC)c1)N(C)C2=O
138

---

Test system: OVCAR-5 ovarian
ASSAY DETAILS: NCI-60 one-dose screen, 48 h (100 = growth as untreated, 0 = no growth, -100 = all killed)
MEASUREMENT SETUP: 10 µM
About 83,000 compounds went through this panel and 20% of them were active in at least one assay; those are over-represented in the sample as a whole. Active and inactive are the calls of the source. How the source made its calls: active means growth percent below 10; inactive means the rest.
RESULT TYPE: growth

Answered cases to consult:
>>> print(df.to_string())
                                   compound  result_type    value_observed
0  C[C@]12CC[C@@H]3c4ccc(OCC(=O)O)cc4CC[C@H]3[C@@H]1CCC2=O       growth   107% (inactive)
1  CC(O)COc1ccc(-c2ccccc2)cc1 (centres undefined)       growth  98.9% (inactive)
2          O=C(CCNNC(=O)c1ccncc1)NCc1ccccc1       growth   105% (inactive)
3  Cc1ccc(C(O)C2CC2)cc1 (centres undefined)       growth    94% (inactive)

Note growth for the compound shown: CC(C)OC(C(=O)O)c1ccccc1 (centres undefined)
97.1% (inactive)

Note growth for the compound shown: c1ccc2c(N3CCCCC3)ncnc2c1
99.9% (inactive)

Note growth for the compound shown: O=C(CC(=O)c1ccccc1O)c1ccccc1
101% (inactive)

Note growth for the compound shown: OCCN(CCO)C(=S)S
120% (inactive)

Note growth for the compound shown: Cn1cnc2nc(Cl)nc(Cl)c21
59.8% (inactive)
